compounds and their reported Ratio
experimental_protocol: Binding affinity to FAM-TWJ-S1/TWJ-S2/TAMRA-TWJ-S3 DNA (unknown origin) assessed as normalized FAM intensity at 1 uM measured at 5 mins interval for 1 hr by fluorescence assay relative to control
measured_parameter: Ratio

molecule	measured_parameter	test_result
c1cc2ccc3cc2cc1CNCCNCCNCc1ccc2ccc(cc2c1)CNCCNCCNC3	Ratio	46%
C[n+]1ccc(-c2c3nc(c(-c4cc[n+](C)cc4)c4ccc([nH]4)c(-c4cc[n+](C)cc4)c4ccc([nH]4)c(-c4cc[n+](C)cc4)c4nc2C=C4)C=C3)cc1	Ratio	86%
NCCCNC[C@]12c3ccccc3[C@](CNCCCN)(c3ccccc31)c1cc3ccccc3cc12	Ratio	63%
c1cc2nc3ccc4cc3cc2cc1CNCCOCCNCc1ccc2nc3ccc(cc3cc2c1)CNCCOCCNC4	Ratio	54%
c1cc2ccc3ccc(-[n+]4csc5ccccc54)c4ccc(c1)c2c34	Ratio	23%
COCCOCCOCC[n+]1ccc(-c2c3nc(c(-c4cc[n+](CCOCCOCCOC)cc4)c4ccc([nH]4)c(-c4cc[n+](CCOCCOCCOC)cc4)c4nc(c(-c5cc[n+](CCOCCOCCOC)cc5)c5ccc2[nH]5)C=C4)C=C3)cc1	Ratio	72%
c1cc2c3nc4c(cccc4cc3c1)CNCCOCCNCc1cccc3cc4cccc(c4nc13)CNCCOCCNC2	Ratio	35%
CN(C)CCCNCC12c3ccccc3C(CNCCCN(C)C)(c3ccccc31)c1ccccc12	Ratio	27%
Cn1c[n+](-c2ccc3ccc4cccc5ccc2c3c45)cn1	Ratio	22%
c1cc2c3cccc(c3c1)CNCCOCCNCc1cccc3c(cccc13)CNCCOCCNC2	Ratio	42%
c1cc2cc(c1)-c1cccc(c1)CNCCN1CCNCc3cccc(c3)-c3cccc(c3)CNCCN(CCNC2)CCNCc2cccc(c2)-c2cccc(c2)CNCC1	Ratio	33%
